target-or-test-system: POT1 H266L;TPP1 (human;human, UniProt Q9NUX5;Q96AP0 1-634;3-248, H266L|)
Sequence (Q9NUX5 whole entry H266L, chain 1 of 2): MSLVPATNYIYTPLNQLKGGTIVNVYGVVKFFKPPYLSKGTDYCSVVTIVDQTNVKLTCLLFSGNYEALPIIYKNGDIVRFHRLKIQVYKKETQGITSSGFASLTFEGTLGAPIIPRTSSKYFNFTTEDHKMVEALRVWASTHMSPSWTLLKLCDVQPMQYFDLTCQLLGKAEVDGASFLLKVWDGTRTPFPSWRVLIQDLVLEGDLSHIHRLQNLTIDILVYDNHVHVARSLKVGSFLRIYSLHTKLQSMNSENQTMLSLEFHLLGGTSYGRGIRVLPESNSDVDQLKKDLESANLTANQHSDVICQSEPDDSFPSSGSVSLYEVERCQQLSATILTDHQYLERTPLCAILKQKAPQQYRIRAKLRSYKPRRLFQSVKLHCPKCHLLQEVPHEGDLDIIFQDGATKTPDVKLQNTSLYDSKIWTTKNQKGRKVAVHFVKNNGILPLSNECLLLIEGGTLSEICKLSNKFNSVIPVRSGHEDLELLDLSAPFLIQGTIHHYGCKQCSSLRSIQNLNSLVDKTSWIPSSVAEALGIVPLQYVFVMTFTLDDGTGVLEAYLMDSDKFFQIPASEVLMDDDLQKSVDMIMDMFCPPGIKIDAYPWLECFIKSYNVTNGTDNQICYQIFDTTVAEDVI
Sequence (Q96AP0 3-248, chain 2 of 2): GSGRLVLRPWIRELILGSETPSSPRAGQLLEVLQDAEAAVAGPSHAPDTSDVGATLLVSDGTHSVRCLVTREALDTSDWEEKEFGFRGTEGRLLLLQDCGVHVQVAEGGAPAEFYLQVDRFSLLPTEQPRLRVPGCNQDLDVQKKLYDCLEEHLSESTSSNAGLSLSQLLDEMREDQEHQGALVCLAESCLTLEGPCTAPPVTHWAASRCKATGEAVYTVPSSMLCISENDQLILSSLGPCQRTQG
protocol-summary: EMSA
result-type: Kd (nM)
Supply the numeric figure in nM, leaving out any unit text.

For record GGTTAGGGTTAG (ssDNA) [hT12] the listed Kd is 29.1
